# test-target: rat P2X3 receptor (Rattus norvegicus)
# Construct: expressed in transfected cells; host or cells: CHO-K1
# Sequence (P49654 whole entry): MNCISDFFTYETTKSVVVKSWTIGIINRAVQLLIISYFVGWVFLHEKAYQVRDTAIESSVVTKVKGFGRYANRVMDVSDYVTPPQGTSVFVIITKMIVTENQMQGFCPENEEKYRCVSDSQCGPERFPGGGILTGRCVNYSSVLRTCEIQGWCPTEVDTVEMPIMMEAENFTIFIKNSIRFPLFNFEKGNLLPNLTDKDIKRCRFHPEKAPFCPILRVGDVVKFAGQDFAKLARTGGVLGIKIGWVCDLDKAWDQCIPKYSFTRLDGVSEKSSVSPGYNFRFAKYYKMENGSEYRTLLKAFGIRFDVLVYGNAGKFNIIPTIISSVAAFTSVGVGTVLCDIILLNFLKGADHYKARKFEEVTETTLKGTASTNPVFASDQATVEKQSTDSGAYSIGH
# test-protocol: P2X3 FLIPR (Fluorometric Imaging Plate Reader) assay
# Assay type: cell-based
# stated-conditions: CHO-K1 cells transfected with cloned rat P2X3; agonist α,β-meATP 1 μM; Fluo-3 AM calcium fluorescence
recorded-metric: P2X3 (pIC50 values for the P2X3 receptor)

molecule: CC(NC(=O)c1cc(-c2ccc(Cl)cc2)cc(N(C)C(=O)N(C)C)c1)c1cnccn1 (centres unmarked)
readout-number: 6.26

molecule: Cc1ccc(-c2cc(C(=O)N[C@@H](C)CO)cc(N(C)C(=O)C(C)C)c2)c(F)c1
readout-number: 8.16

[I] COCC(C)NC(=O)c1cc(NC(=O)c2ccccn2)cc(-c2ccc(C)cc2)c1 (centres unmarked)
[II] CCC(C)C(=O)N(C)c1cc(C(=O)NC(C)c2cnccn2)cc(-c2ccc(C)cc2)c1 (centres unmarked)
(Q) Hi! Which is lower in terms of P2X3 (pIC50 values for the P2X3 receptor), the first one I or the second one II ? Indicate which entry you chose by stating its label.
(A) I
